System: Mus musculus
test description: Antinociceptive activity in KM mouse model of capsaicin-induced pain assessed as reduction in paw licking time at 30 mg/kg, po administered as single dose pretreated for 30 mins followed by capsaicin challenge and measured for 5 mins
Format: functional, organism-based
Calls of active or inactive are those of the source. The calls are words filed in the database; no cut-off is given here.
result type: Activity

These recorded examples may help you get a feel for the data.
{"chemical smiles": "O=[N+]([O-])c1ccc(-n2cc(CN3CCc4c([nH]c5ccccc45)C3)nn2)cc1", "result type": "Activity", "test result": "Active"}
{"chemical smiles": "FC(F)(F)c1cccc(-n2cc(CN3CCc4c([nH]c5ccccc45)C3)nn2)c1", "result type": "Activity", "test result": "Active"}
{"chemical smiles": "CC(C)(C)c1ccc(NC(=O)N2CCN(c3ncccc3Cl)CC2)cc1", "result type": "Activity", "test result": "Active"}
{"chemical smiles": "Clc1ccc(Cl)c(-n2cc(CN3CCc4c([nH]c5ccccc45)C3)nn2)c1", "result type": "Activity", "test result": "Active"}
{"chemical smiles": "O=[N+]([O-])c1ccccc1-n1cc(CN2CCc3c([nH]c4ccccc34)C2)nn1", "result type": "Activity", "test result": "Active"}

**Q:** Please give the measured Activity for this molecule: "FC(F)(F)c1ccccc1-n1cc(CN2CCc3c([nH]c4ccccc34)C2)nn1"
**A:** Active

Where do these numbers come from? They come from ChEMBL document CHEMBL4364266.
